Structures can show the parent of a compound that is named as a salt.
Recorded melting point by entry
value kind: melting point

INSERT INTO results (compound, test_value) VALUES
  ('CCN(CC)CCOc1cccc2c1c1cc(Cl)ccc1n2Cc1ccccc1', '96 to 97.5 °C'),
  ('CNCCOc1cccc2c1c1cc(C)ccc1n2Cc1ccccc1', '96 to 96.75 °C'),
  ('CCN(CC)CCOc1cccc2c1c1ccccc1n2Cc1ccccc1', '79 to 80.5 °C'),
  ('CCN(CC)CCOc1cccc2c1c1cccc(Cl)c1n2Cc1ccccc1', '73.5 to 75 °C'),
  ('NCCOc1cccc2c1c1ccccc1n2Cc1csc2ccc(Cl)cc12 (as salt: methane sulfonate)', '> 256 °C');

###

# Ki measurements, system: cloned human 5-HT6 receptor (Homo sapiens, UniProt P50406)
# Sequence (P50406 whole entry): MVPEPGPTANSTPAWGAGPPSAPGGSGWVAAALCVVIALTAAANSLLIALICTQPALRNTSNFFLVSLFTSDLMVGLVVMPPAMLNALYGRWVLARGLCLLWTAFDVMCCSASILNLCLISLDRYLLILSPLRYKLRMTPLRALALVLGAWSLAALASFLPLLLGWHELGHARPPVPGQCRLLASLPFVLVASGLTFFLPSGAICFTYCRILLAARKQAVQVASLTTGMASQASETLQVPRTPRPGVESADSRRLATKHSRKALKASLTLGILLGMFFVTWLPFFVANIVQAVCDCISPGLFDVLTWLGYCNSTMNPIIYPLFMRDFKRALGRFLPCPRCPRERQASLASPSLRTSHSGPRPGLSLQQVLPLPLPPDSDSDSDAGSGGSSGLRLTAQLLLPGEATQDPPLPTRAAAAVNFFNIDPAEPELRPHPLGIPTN
value kind: Ki (nM)

INSERT INTO assay_data (molecule, test_value) VALUES
  ('CC(C)(CO)NCCOc1cccc2c1c1ccccc1n2Cc1ccccc1 [Example 17]', 164),
  ('c1ccc(Cn2c3ccccc3c3c(OCCNCC4CCCCC4)cccc32)cc1 [Example 19]', 311),
  ('Clc1ccc(CCNCCOc2cccc3c2c2ccccc2n3Cc2ccccc2)cc1 [Example 18]', 356),
  ('OCCN1CCN(CCOc2cccc3c2c2ccccc2n3Cc2ccccc2)CC1 [Example 9]', 62),
  ('CCN(CC)CCOc1cccc2c1c1ccccc1n2Cc1ccccc1 [Example 1]', 24),
  ('CCN(CC)CCOc1cccc2c1c1cccc(Cl)c1n2Cc1ccc(F)cc1 [Example 3]', 22),
  ('CN1CCN(CCOc2cccc3c2c2ccccc2n3Cc2ccccc2)CC1 [Example 30]', 12),
  ('CCN(CC)CCOc1cccc2c1c1cccc(F)c1n2Cc1ccc(F)cc1 [Example 42]', 20),
  ('CCN(CC)CCOc1cccc2c1c1cc(C)ccc1n2Cc1ccccc1 [Example 45]', 6.6);

###

target: UniProt:P50406
value kind: log10 of Ki (log10 of the value in nM)

INSERT INTO results (smiles_record, test_value) VALUES
  ('c1ccc(Cn2c3ccccc3c3c(OCCNC4CCC4)cccc32)cc1', 1.67),
  ('c1ccc(Cn2c3ccccc3c3c(OCCNCc4ccccn4)cccc32)cc1', 1.84),
  ('c1ccc(CN2CCC(NCCOc3cccc4c3c3ccccc3n4Cc3ccccc3)CC2)cc1', 2.17),
  ('c1ccc(Cn2c3ccccc3c3c(OCCN4CCCC4)cccc32)cc1', 0.84),
  ('NCCOc1cccc2c1c1ccccc1n2Cc1cccc(Br)c1', 2.10),
  ('c1ccc(Cn2c3ccccc3c3c(OCCNC4CC4)cccc32)cc1', 1.32),
  ('OCCCCCNCCOc1cccc2c1c1ccccc1n2Cc1ccccc1', 1.63),
  ('COCCNCCOc1cccc2c1c1ccccc1n2Cc1ccccc1.O=C(O)/C=C\C(=O)O', 1.20),
  ('COc1ccc2c(c1)c1c(OCCN)cccc1n2Cc1ccccc1', 1.43);

###

pKi: −log10 of the molar value.
# pKi measurements, system: cloned human 5-HT6 receptor (Homo sapiens, UniProt P50406)
value kind: pKi

INSERT INTO assay_data (smiles_record, target, test_value) VALUES
  ('c1ccc(Cn2c3ccccc3c3c(OCCN4CCNCC4)cccc32)cc1', 'cloned human 5-HT6 receptor (Homo sapiens, UniProt P50406)', 7.06),
  ('Cc1cccc(Cn2c3ccccc3c3c(OCCN)cccc32)c1', 'cloned human 5-HT6 receptor (Homo sapiens, UniProt P50406)', 7.70),
  ('CCOC(=O)CCNCCOc1cccc2c1c1ccccc1n2Cc1ccccc1', 'cloned human 5-HT6 receptor (Homo sapiens, UniProt P50406)', 7.40),
  ('CCCNCCOc1cccc2c1c1ccccc1n2Cc1ccccc1', 'cloned human 5-HT6 receptor (Homo sapiens, UniProt P50406)', 7.40);
